Assay: Pharmacokinetic study, 3 mg/kg IV, 10 mg/kg PO and 10 mg/kg PO QD*3, plasma, liver and bone
Format: in vivo, mouse
Conditions: female, C57BL/6 J, mouse, plasma, po, 10 mg/kg, PO (QD*3), Time 3 h; individual values (1)-(3); read-out: Plasma concentration
Description: The concentration of compound in plasma, liver, and long bones was detected using liquid chromatography tandem mass spectrometry (LC-MS/MS). […] IV administration, one 10 mg/kg PO administration and three 10 mg/kg PO administrations (QD*3). a Plasma, b liver and c bone profiles in female mice. The actual concentration (ng/g) is the detected value (ng/mL) multiplied by 4. […] Results are expressed as the mean ± SEM.
Recorded Endpoint: concentration at 3 h (µg/mL)
Please state the figure in µg/mL; there is no need to write the unit.

So for O=C1Nc2ccc(-c3cc(C(F)(F)F)cc(C(F)(F)F)c3)cc2C(=O)N2CCN(C(=O)COc3ccc(OC(F)(F)F)cc3I)C[C@@H]12 , the logged concentration at 3 h turned out to be 0.264

====

Assay: Pharmacokinetic study, 3 mg/kg IV, 10 mg/kg PO and 10 mg/kg PO QD*3, plasma, liver and bone
Assay type: in vivo, mouse
Conditions: female, C57BL/6 J, mouse, liver, iv, 3 mg/kg, liver, IV, 7 h, individual animals; read-out: Liver 6641 IV concentration
Recorded Endpoint: concentration at 7 h (ng/g)
Report the value in ng/g with no unit label.

# concentration at 7 h of O=C1Nc2ccc(-c3cc(C(F)(F)F)cc(C(F)(F)F)c3)cc2C(=O)N2CCN(C(=O)COc3ccc(OC(F)(F)F)cc3I)C[C@@H]12 = 474

====

Assay: Pharmacokinetic study, 3 mg/kg IV, 10 mg/kg PO and 10 mg/kg PO QD*3, plasma, liver and bone
Format: in vivo, mouse
Details: female, C57BL/6 J, mouse, plasma, po, 10 mg/kg, PO, Time 3 h; individual values (1)-(3); read-out: Plasma concentration
Recorded Endpoint: concentration at 3 h (ng/mL)
Number in ng/mL, nothing else.

The molecule listed as O=C1Nc2ccc(-c3cc(C(F)(F)F)cc(C(F)(F)F)c3)cc2C(=O)N2CCN(C(=O)COc3ccc(OC(F)(F)F)cc3I)C[C@@H]12 has a reported concentration at 3 h of 219
